# System: 22Rv1 tumor-bearing mice
# METHOD NOTES: Biodistribution in 22Rv1 tumor-bearing mice
# CONDITION DESCRIPTION: 10 min p.i., 0.74 MBq, n = 3
Let's look at some compounds and their measured Uptake Heart, Mean.
State just the number; it will be interpreted in ID%/g.

For orientation, consider the following solved cases.
* O=C([O-])CN1CCN(CC(=O)[O-])CCN(CC(=O)NCC2CCC(C(=O)NC(Cc3cnc4ccccc4c3)C(=O)NCCCCC(NC(=O)NC(CCC(=O)O)C(=O)O)C(=O)O)CC2)CCN(CC(=O)O)CC1.[68Ga+3] (stereo not drawn) [[^68Ga]Ga-PSMA-Q] | 2.07
* O=C([O-])CN(CCN(CC(=O)[O-])Cc1cc(CCC(=O)NCCCCCC(=O)NCCCC[C@H](NC(=O)N[C@@H](CCC(=O)O)C(=O)O)C(=O)O)ccc1[O-])Cc1cc(CCC(=O)O)ccc1[O-].[68Ga+3].[OH3+] [[^68Ga]Ga-PSMA-11, reference compound] | 2.54

Consider the record given below.
Q. Any idea what Uptake Heart, Mean was measured for O=C([O-])CN1CCN(CC(=O)[O-])CCN(CC(=O)NCC2CCC(C(=O)NC(Cc3ccncc3)C(=O)NCCCCC(NC(=O)NC(CCC(=O)O)C(=O)O)C(=O)O)CC2)CCN(CC(=O)O)CC1.[68Ga+3] (stereo not drawn) [[^68Ga]Ga-PSMA-4PY] ?
A. 1.87

* * *

# Tested on: 22Rv1 tumor-bearing mice
# METHOD NOTES: Biodistribution in 22Rv1 tumor-bearing mice
# CONDITION DESCRIPTION: 10 min p.i., 0.74 MBq, n = 3
PROPERTY: Uptake Blood, Mean (ID%/g)
Give the quantity in ID%/g, number only.

# example entries with known answers
• O=C([O-])CN(CCN(CC(=O)[O-])Cc1cc(CCC(=O)NCCCCCC(=O)NCCCC[C@H](NC(=O)N[C@@H](CCC(=O)O)C(=O)O)C(=O)O)ccc1[O-])Cc1cc(CCC(=O)O)ccc1[O-].[68Ga+3].[OH3+] [[^68Ga]Ga-PSMA-11, reference compound] = 2.28
• O=C([O-])CN1CCN(CC(=O)[O-])CCN(CC(=O)NCC2CCC(C(=O)NC(Cc3cnc4ccccc4c3)C(=O)NCCCCC(NC(=O)NC(CCC(=O)O)C(=O)O)C(=O)O)CC2)CCN(CC(=O)O)CC1.[68Ga+3] (centres unmarked) [[^68Ga]Ga-PSMA-Q] = 2.62
• O=C([O-])CN1CCN(CC(=O)[O-])CCN(CC(=O)NCC2CCC(C(=O)NC(Cc3ccncc3)C(=O)NCCCCC(NC(=O)NC(CCC(=O)O)C(=O)O)C(=O)O)CC2)CCN(CC(=O)O)CC1.[68Ga+3] (centres unmarked) [[^68Ga]Ga-PSMA-4PY] = 1.68

Q. If you can, please state the reported Uptake Blood, Mean value of O=C([O-])CN1CCN(CC(=O)[O-])CCN(CC(=O)NCCCCCC(=O)NC(Cc2cnc3ccccc3c2)C(=O)NCCCCC(NC(=O)NC(CCC(=O)O)C(=O)O)C(=O)O)CCN(CC(=O)O)CC1.[68Ga+3] (centres unmarked) [[^68Ga]Ga-PSMA-Q-2] .
A. 1.87

Q. What value of measured Uptake Blood, Mean is listed for O=C([O-])CN1CCN(CC(=O)[O-])CCN(CC(=O)NCCCCC(=O)NC(Cc2cnc3ccccc3c2)C(=O)NCCCCC(NC(=O)NC(CCC(=O)O)C(=O)O)C(=O)O)CCN(CC(=O)O)CC1.[68Ga+3] (centres unmarked) [[^68Ga]Ga-PSMA-Q-1] ?
A. 2.88

* * *

# Test system: 22Rv1 tumor-bearing mice
# METHOD NOTES: Biodistribution in 22Rv1 tumor-bearing mice
# CONDITION DESCRIPTION: 60 min p.i., 0.74 MBq, n = 3
# Criterion met = Uptake Lung, Mean below 0.3 ID%/g (exclusive); Criterion not met = Uptake Lung, Mean at/above 0.3 ID%/g

Reference set, count: 6
• O=C([O-])CN1CCN(CC(=O)[O-])CCN(CC(=O)NCCCCCC(=O)NC(Cc2cnc3ccccc3c2)C(=O)NCCCCC(NC(=O)NC(CCC(=O)O)C(=O)O)C(=O)O)CCN(CC(=O)O)CC1.[68Ga+3] (stereo not shown) [[^68Ga]Ga-PSMA-Q-2] = Criterion not met
• O=C([O-])CN1CCN(CC(=O)[O-])CCN(CC(=O)NCC2CCC(C(=O)NC(Cc3ccc4ccccc4c3)C(=O)NCCCCC(NC(=O)NC(CCC(=O)O)C(=O)O)C(=O)O)CC2)CCN(CC(=O)O)CC1.[68Ga+3] (stereo not shown) [[^68Ga]Ga-PSMA-617, reference compound] = Criterion not met
• O=C([O-])CN1CCN(CC(=O)[O-])CCN(CC(=O)NCCCCC(=O)NC(Cc2cnc3ccccc3c2)C(=O)NCCCCC(NC(=O)NC(CCC(=O)O)C(=O)O)C(=O)O)CCN(CC(=O)O)CC1.[68Ga+3] (stereo not shown) [[^68Ga]Ga-PSMA-Q-1] = Criterion met
• O=C([O-])CN1CCN(CC(=O)[O-])CCN(CC(=O)NCC2CCC(C(=O)NC(Cc3ccncc3)C(=O)NCCCCC(NC(=O)NC(CCC(=O)O)C(=O)O)C(=O)O)CC2)CCN(CC(=O)O)CC1.[68Ga+3] (stereo not shown) [[^68Ga]Ga-PSMA-4PY] = Criterion met
• O=C([O-])CN1CCN(CC(=O)[O-])CCN(CC(=O)NCc2ccc(C(=O)NC(Cc3cnc4ccccc4c3)C(=O)NCCCCC(NC(=O)NC(CCC(=O)O)C(=O)O)C(=O)O)cc2)CCN(CC(=O)O)CC1.[68Ga+3] (stereo not shown) [[^68Ga]Ga-PSMA-Q-3] = Criterion not met
• O=C([O-])CN1CCN(CC(=O)[O-])CCN(CC(=O)NCC2CCC(C(=O)NC(Cc3cnc4ccccc4c3)C(=O)NCCCCC(NC(=O)NC(CCC(=O)O)C(=O)O)C(=O)O)CC2)CCN(CC(=O)O)CC1.[68Ga+3] (stereo not shown) [[^68Ga]Ga-PSMA-Q] = Criterion not met

Please turn your attention to the following entry.
Q. Uptake Lung, Mean under 0.3 ID%/g? Item: O=C([O-])CN(CCN(CC(=O)[O-])Cc1cc(CCC(=O)NCCCCCC(=O)NCCCC[C@H](NC(=O)N[C@@H](CCC(=O)O)C(=O)O)C(=O)O)ccc1[O-])Cc1cc(CCC(=O)O)ccc1[O-].[68Ga+3].[OH3+] [[^68Ga]Ga-PSMA-11, reference compound]
A. Criterion met

* * *

# Tested on: 22Rv1 tumor-bearing mice
# METHOD NOTES: Biodistribution in 22Rv1 tumor-bearing mice
# CONDITION DESCRIPTION: 30 min p.i., 0.74 MBq, n = 3
Property: Uptake Liver, Mean; scope: individual compounds
Quick reminder: number only, in ID%/g, skip the unit.

Observe how each entry below is paired with its result.
* O=C([O-])CN1CCN(CC(=O)[O-])CCN(CC(=O)NCC2CCC(C(=O)NC(Cc3ccc4ccccc4c3)C(=O)NCCCCC(NC(=O)NC(CCC(=O)O)C(=O)O)C(=O)O)CC2)CCN(CC(=O)O)CC1.[68Ga+3] (stereo not shown) [[^68Ga]Ga-PSMA-617, reference compound] | 1.13
* O=C([O-])CN1CCN(CC(=O)[O-])CCN(CC(=O)NCc2ccc(C(=O)NC(Cc3cnc4ccccc4c3)C(=O)NCCCCC(NC(=O)NC(CCC(=O)O)C(=O)O)C(=O)O)cc2)CCN(CC(=O)O)CC1.[68Ga+3] (stereo not shown) [[^68Ga]Ga-PSMA-Q-3] | 1.18
* O=C([O-])CN1CCN(CC(=O)[O-])CCN(CC(=O)NCC2CCC(C(=O)NC(Cc3cnc4ccccc4c3)C(=O)NCCCCC(NC(=O)NC(CCC(=O)O)C(=O)O)C(=O)O)CC2)CCN(CC(=O)O)CC1.[68Ga+3] (stereo not shown) [[^68Ga]Ga-PSMA-Q] | 1.14
* O=C([O-])CN1CCN(CC(=O)[O-])CCN(CC(=O)NCCCCC(=O)NC(Cc2cnc3ccccc3c2)C(=O)NCCCCC(NC(=O)NC(CCC(=O)O)C(=O)O)C(=O)O)CCN(CC(=O)O)CC1.[68Ga+3] (stereo not shown) [[^68Ga]Ga-PSMA-Q-1] | 1.23
* O=C([O-])CN1CCN(CC(=O)[O-])CCN(CC(=O)NCCCCCC(=O)NC(Cc2cnc3ccccc3c2)C(=O)NCCCCC(NC(=O)NC(CCC(=O)O)C(=O)O)C(=O)O)CCN(CC(=O)O)CC1.[68Ga+3] (stereo not shown) [[^68Ga]Ga-PSMA-Q-2] | 1.21

Q. Request - read-out Uptake Liver, Mean | tested on 22Rv1 tumor-bearing mice | compound O=C([O-])CN(CCN(CC(=O)[O-])Cc1cc(CCC(=O)NCCCCCC(=O)NCCCC[C@H](NC(=O)N[C@@H](CCC(=O)O)C(=O)O)C(=O)O)ccc1[O-])Cc1cc(CCC(=O)O)ccc1[O-].[68Ga+3].[OH3+] [[^68Ga]Ga-PSMA-11, reference compound]
A. 0.78

Q. Param readout= Uptake Liver, Mean; system= 22Rv1 tumor-bearing mice; entry= O=C([O-])CN1CCN(CC(=O)[O-])CCN(CC(=O)NCC2CCC(C(=O)NC(Cc3ccncc3)C(=O)NCCCCC(NC(=O)NC(CCC(=O)O)C(=O)O)C(=O)O)CC2)CCN(CC(=O)O)CC1.[68Ga+3] (stereo not shown) [[^68Ga]Ga-PSMA-4PY] ; returns value.
A. 0.78
